// provenance: PubChem BioAssay (Tox21)

Assay: qHTS assay to identify small molecule that activate the aryl hydrocarbon receptor (AhR) signaling pathway - cell viability counter screen (AID 743086); further: nearly all actives have a fitted effect of over 45% in size
Conditions: HepG2-AhR-luc viability, CellTiter-Fluor, 24 h; series mostly up to 70.3 µM
Results filed as inconclusive are left out. Active and inactive are the calls of the source. The call rests on the fitted dose curve; in most records, active means well fitted cell-killing curve with a large enough effect in the repeat runs; inconclusive means weak or mixed curves, or effect the other way; inactive means flat fitted curve, though single readings scatter.
Could you please pick one outcome from this set? active, inactive

Test call, this compound: CC1=C(/C=C/C(C)=C/C=C/C(C)=C/C=C/C=C(C)/C=C/C=C(C)/C=C/C2=C(C)C[C@@H](O)CC2(C)C)C(C)(C)C[C@H](O)C1
inactive

Lab log entry: CCCOc1cc(N)ccc1C(=O)OCCN(CC)CC — outcome as called in the assay?
inactive

I would be grateful if you could indicate the recorded call for NC(=S)N=Nc1ccc(NN=C(N)N)cc1 .
active

Short answer needed: outcome of this test for CN[C@@H]1[C@H](O[C@H]2[C@H](O[C@H]3[C@H](O)[C@@H](O)[C@H](N=C(N)N)[C@@H](O)[C@@H]3N=C(N)N)O[C@@H](C)[C@]2(O)CO)O[C@@H](CO)[C@H](O)[C@H]1O ?
inactive

Outcome? CCCCCC(O)/C=C/C=O (stereo not drawn)
inactive

What did this assay record as the result for CCOC(=O)[C@H](CCc1ccccc1)N[C@@H](C)C(=O)N1CC2(C[C@H]1C(=O)O)SCCS2 ?
inactive

GET /call?item= CCCCC[C@H](O)/C=C/[C@H]1[C@H](O)CC(=O)[C@@H]1CCCCCCC(=O)O returns the recorded outcome of this test.
inactive

// return assay outcome for Nc1nc(=O)n([C@@H]2CS[C@H](CO)O2)cc1F
inactive

State the result this test recorded for Cc1cccc(C)c1N(CCCc1cccnc1)C(=O)C(C)N (stereo not drawn) .
inactive

Test call, this compound: CC1C(=O)CC2C3(C)CCC2(C(C)C(=O)O)C(=O)C13 (stereo not drawn)
inactive

Record request — test call for C=CCN1CCCC1CNC(=O)c1cc(S(N)(=O)=O)cc(OC)c1OC (stereo not drawn)
inactive

Name the outcome recorded for CC1(C)S[C@@H]2[C@H](NC(=O)C(N)c3ccccc3)C(=O)N2[C@H]1C(=O)OC1OC(=O)c2ccccc21 (stereo partly drawn) in the assay.
inactive

Tell me the assay call for CC(O)[C@H]1CC[C@H]2[C@@H]3CC[C@@H]4C[C@@H](O)CC[C@]4(C)[C@H]3CC[C@]12C (stereo partly drawn) please.
inactive

Could you please tell me the result logged for CCOC(=O)C1=C(COCCN)NC(C)=C(C(=O)OC)C1c1ccccc1Cl (stereo not drawn) in this assay?
active

# outcome recorded in this test, key = COc1ccc(CCNC[C@H](O)c2ccc(O)cc2)cc1OC
inactive

Dear colleague, could you share the recorded outcome for COc1cc([C@@H]2c3cc4c(cc3C(O[C@@H]3O[C@@H]5COC(c6cccs6)O[C@H]5[C@H](O)[C@H]3O)C3COC(=O)[C@@H]32)OCO4)cc(OC)c1O (stereo partly drawn) when you have a moment?
inactive

Given CC[C@@H](C(=O)O)[C@@H]1O[C@@H]([C@@H](C)[C@H](O)[C@H](C)C(=O)[C@H](CC)[C@H]2O[C@]3(C=C[C@@H](O)[C@]4(CC[C@@](C)([C@H]5CC[C@](O)(CC)[C@H](C)O5)O4)O3)[C@H](C)C[C@@H]2C)[C@@H](C)C[C@@H]1C , state the outcome it received in this test.
inactive

Query: recorded result category for COC(=O)[C@@H](N)CS in this test
inactive
